target_system: interaction between biotinylated human S100A9 and human RAGE-Fc (Homo sapiens, UniProt P06702)
Sequence (P06702 1-114): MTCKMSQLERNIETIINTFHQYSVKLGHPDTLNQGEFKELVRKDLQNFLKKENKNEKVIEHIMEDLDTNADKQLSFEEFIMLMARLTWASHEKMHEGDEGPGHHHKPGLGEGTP
method: AlphaScreen inhibition assay, biot-hS100A9:hRAGE-Fc
reported_conditions: biot-hS100A9 pre-incubated with compound 1 h, assay buffer with CaCl2 and ZnCl2
pIC50: −log10 of the molar value.

| compound | pIC50 |
| --- | --- |
| O=C(O)c1cn2c(n1)sc1cc(C(F)(F)F)ccc12 | 5.67 |
| CC1(C)Cc2c(sc3nc(C(=O)O)c(C4CNC4)n23)C(C)(C)C1 | 5.77 |
| CC1CCCc2c1sc1nc(C(=O)NS(C)(=O)=O)cn21 (single isomer, unassigned) [Example 49] | 6.00 |
| CC1(C)Cc2c(sc3nc(C(=O)NS(=O)(=O)CCCN4CCOCC4)cn23)C(C)(C)C1 | 6.26 |
| C[C@]1(C(=O)O)CN2C(=N1)Sc1c2ccc(F)c1Cl (single isomer, unassigned) [Example 279a] | 6.77 |
| CC(=O)N1CCN(Cc2c(C(=O)O)nc3sc4c(n23)CCC(C(C)(C)C)C4)CC1 (stereo not shown) | 5.96 |
| O=C(O)c1cn2c(n1)sc1cc(OCc3ccccc3)ccc12 | 5.65 |
| CC(C)(C)C1CCc2c(sc3nc(C(=O)O)cn23)C1 (stereo not shown) | 6.35 |
| O=C(NS(=O)(=O)C1CC1)c1cn2c(n1)sc1c(Cl)c(Cl)ccc12 | 6.55 |
| CC1(C)Cc2c(sc3nc(C(=O)O)c(I)n23)C(C)(C)C1 | 6.28 |
| O=C(O)c1cn2c(n1)sc1cc(Cl)c(OC(F)(F)F)cc12 | 6.01 |
| O=C(O)c1cn2c(n1)sc1cc(F)ccc12 | 5.53 |
| O=C(O)c1cn2c(n1)sc1c(Cl)c(N3CC(F)(F)C3)ccc12 | 6.02 |
| CC1(C)Cc2c(sc3nc(C(=O)O)c(C4CN(C(=O)OC(C)(C)C)C4)n23)C(C)(C)C1 | 6.51 |
| CC1(C)CCc2sc3nc(C(=O)NS(C)(=O)=O)cn3c2C1 | 5.98 |
| CC(C)(C)C1CCc2c(sc3nc(C(=O)O)c(CN4CCOCC4)n23)C1 (stereo not shown) | 5.86 |
| CS(=O)(=O)NC(=O)c1cn2c(n1)sc1cc(OC(F)(F)F)ccc12 | 5.66 |
| CC1(C(=O)NS(C)(=O)=O)CN2C(=N1)Sc1c2ccc(F)c1Cl (stereo not shown) | 6.11 |
| CC1(C)Cc2c(sc3nc(C(=O)O)c(N4CCOCC4)n23)C(C)(C)C1 | 6.37 |
| CC1(C)Cc2c(sc3nc(C(=O)O)c(CN4CCOCC4)n23)C(C)(C)C1 | 6.22 |
| O=C(O)c1cn2c(n1)sc1c(Cl)c(Cl)c(OCCN3CCOCC3)cc12 | 6.26 |
| O=C(O)C1CN2C(=N1)Sc1c2ccc(F)c1Cl (stereo not shown) | 6.59 |
| O=C(O)C1(Cc2ccccc2)CN2C(=N1)Sc1c2ccc(F)c1Cl (stereo not shown) | 6.11 |
| O=C(O)c1cn2c(n1)sc1cc(Cl)ccc12 | 5.57 |
| CON(C)Cc1c(C(=O)O)nc2sc3c(n12)CCC(C(C)(C)C)C3 (stereo not shown) | 6.05 |
| O=C(O)c1cn2c(n1)sc1c(Br)cccc12 | 6.15 |
| O=C(O)c1cn2c(n1)sc1c(Cl)c(F)ccc12 | 6.60 |
| CC(C)(C)C1CCc2c(sc3nc(C(=O)O)c(NCc4ccccc4)n23)C1 (stereo not shown) | 5.98 |
| CC(C)(C)C1CCc2c(sc3nc(CC(=O)O)cn23)C1 (stereo not shown) | 5.51 |
| CC(=O)NCc1c(C(=O)O)nc2sc3c(n12)CCC(C(C)(C)C)C3 (stereo not shown) | 5.94 |
| CC1(C)CCc2sc3nc(C(=O)O)cn3c2C1 | 6.08 |
| CC1(C)CCc2c(sc3nc(C(=O)O)cn23)C1 | 6.08 |
| O=C(O)c1cn2c(n1)sc1ccc(Cl)cc12 | 5.25 |
| O=C(O)C1CN2C(=N1)Sc1c2ccc(Cl)c1Cl (stereo not shown) | 6.35 |
| O=C(O)c1cn2c(n1)sc1c(Cl)c(OC(F)(F)F)ccc12 | 6.19 |
| O=C(O)C1CN2C(=N1)Sc1c2ccc(Br)c1Cl (stereo not shown) | 6.37 |
| O=C(O)C1CN2C(=N1)Sc1c2cc(OCCN2CCOCC2)c(Cl)c1Cl (stereo not shown) | 5.90 |
